study target: Gal4-RORγ-LBD (Homo sapiens, UniProt P51449)
Construct: expressed in transfected cells
Sequence (P51449 269-508 limits assumed): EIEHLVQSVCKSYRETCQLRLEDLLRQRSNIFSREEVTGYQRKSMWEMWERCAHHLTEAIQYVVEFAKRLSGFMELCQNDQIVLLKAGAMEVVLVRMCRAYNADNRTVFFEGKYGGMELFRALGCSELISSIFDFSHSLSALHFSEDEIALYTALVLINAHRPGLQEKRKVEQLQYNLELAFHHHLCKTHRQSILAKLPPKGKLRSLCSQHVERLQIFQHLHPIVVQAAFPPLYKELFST
run description: Gal4-RORγ Luciferase Reporter Assay in HEK-293T Cells
Type: cell-based
condition context: HEK-293 cells, luciferase reporter, in presence of ursolic acid

compound: C/C(=C\c1ccc2c(c1)N(S(=O)(=O)c1cccc(C(F)(F)F)c1)C[C@H](CCNS(C)(=O)=O)O2)c1c(F)cccc1Cl
EC50: < 500 nM
//
compound: CC(=O)NC1CN(C(=O)CC[C@H]2CN(S(=O)(=O)c3cccc(C(F)(F)F)c3)c3cc(/C=C(\C)c4c(F)cccc4Cl)ccc3O2)C1 [Example 127N]
EC50: < 500 nM
//
compound: COc1cc(S(=O)(=O)N2c3cc(/C=C/c4c(F)cccc4Cl)ccc3C[C@@H](O)[C@H]2C)ccc1F (racemic)
EC50: < 500 nM

---

study target: Gal4-RORγ-LBD (Homo sapiens, UniProt P51449)
Construct: expressed in transfected cells
run description: Gal4-RORγ Luciferase Reporter Assay in HEK-293T Cells
Format: cell-based
condition context: HEK-293 cells, luciferase reporter, with ursolic acid
Consider the following compounds and their measured EC50 readings.
metric: EC50

compound: C/C(=C\c1ccc2c(c1F)N(S(=O)(=O)c1cccc(C(F)(F)F)c1)C[C@H](CCC(=O)O)O2)c1c(F)cccc1Cl [Example 62]
study target: Gal4-RORγ-LBD (Homo sapiens, UniProt P51449)
value observed: 0.5 to 5 µM

compound: O=C(O)CC[C@H]1CN(S(=O)(=O)c2cc(C(F)(F)F)cnc2OCCO)c2cc(/C=C/c3c(Cl)cccc3C(F)F)ccc2O1 [Example 89EM]
study target: Gal4-RORγ-LBD (Homo sapiens, UniProt P51449)
value observed: < 0.5 µM

compound: COC(=O)CC[C@H]1CN(S(=O)(=O)c2cccc(OC(F)F)c2)c2cc(/C=C(\C)c3c(F)cccc3Cl)cc(F)c2O1 [Example 51]
study target: Gal4-RORγ-LBD (Homo sapiens, UniProt P51449)
value observed: < 0.5 µM

compound: O=C(O)CC[C@H]1CN(S(=O)(=O)c2cccc(C(F)(F)F)c2)c2cc(C=C3CCC(F)(F)CC3)ccc2O1 [Example 95L]
study target: Gal4-RORγ-LBD (Homo sapiens, UniProt P51449)
value observed: < 0.5 µM

compound: CCOc1nn(CC)cc1S(=O)(=O)N1C[C@H](CCC(=O)OC)Oc2ccc(/C=C/c3ncccc3Cl)cc21 [Example 89DJ]
study target: Gal4-RORγ-LBD (Homo sapiens, UniProt P51449)
value observed: 0.5 to 5 µM

compound: CC(F)(F)c1cccc(Cl)c1/C=C/c1ccc2c(c1)N(S(=O)(=O)c1cccc(C(F)(F)F)c1)C[C@H](CCC(=O)O)O2 [Example 89EV]
study target: Gal4-RORγ-LBD (Homo sapiens, UniProt P51449)
value observed: 5 to 10 µM
